Entry source: the supplement of paper PMC8728848

# target-desc: Neu5Ac(a2-3)Gal(b1-3)GlcNAc(b1-2)Man(a1-3)[Neu5Ac(a2-3)Gal(b1-3)GlcNAc(b1-2)Man(a1-6)]Man(b1-4)GlcNAc(b1-4)GlcNAc
# assay-details: glycan array binding signal (z-score within array); higher = stronger binding
# test-conditions: glycan notation: IUPAC condensed, linker removed
The full list was thinned out, with the strongest signals kept by preference.
For each record, write down the corresponding glycan array binding signal (z-score).
Respond using a number only.

# input binder: Clone730PsrP (Streptococcus pneumoniae) (protein) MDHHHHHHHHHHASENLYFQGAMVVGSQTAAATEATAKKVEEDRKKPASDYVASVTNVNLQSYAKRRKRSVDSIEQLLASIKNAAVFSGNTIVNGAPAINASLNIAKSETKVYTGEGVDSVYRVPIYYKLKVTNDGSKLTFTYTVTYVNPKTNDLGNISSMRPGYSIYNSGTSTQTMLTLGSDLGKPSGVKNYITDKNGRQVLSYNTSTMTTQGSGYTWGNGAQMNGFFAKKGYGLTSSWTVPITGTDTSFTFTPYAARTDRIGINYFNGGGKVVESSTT ; wanted: its glycan array binding signal (z-score)
0.657

# input binder: PfulAvr4 2 (Pseudocercospora fuligena) (protein) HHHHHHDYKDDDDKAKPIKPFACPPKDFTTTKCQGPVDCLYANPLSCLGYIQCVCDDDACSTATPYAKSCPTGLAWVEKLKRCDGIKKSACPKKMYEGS ; wanted: its glycan array binding signal (z-score)
7.16

# input binder: HBHA-Rv (Mycobacterium tuberculosum), P0A5P6 (protein) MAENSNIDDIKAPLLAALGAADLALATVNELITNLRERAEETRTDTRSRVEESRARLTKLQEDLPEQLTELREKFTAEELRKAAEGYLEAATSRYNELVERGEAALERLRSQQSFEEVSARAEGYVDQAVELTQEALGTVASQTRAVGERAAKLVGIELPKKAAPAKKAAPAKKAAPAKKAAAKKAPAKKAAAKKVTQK ; wanted: its glycan array binding signal (z-score)
-0.163
